The measured values listed here are drawn from patent US10383861B2.

# Tested on: primary human mesenchymal stem cells (hMSCs)
# MEASUREMENT PROTOCOL: Induction of chondrogenesis in hMSCs (nodule count, Rhodamine B/Nile Red)
# Format: cell-based
# RECORDED CONDITIONS: 6 days, concentration required to induce 50% levels of chondrogenesis vs TGF-β3, read-out: Conc (nM) of 50% TGF-β3 activity
Record form. Attribute: log10 of EC50. Fill in for each entry.
Log10 applied to EC50; unit prior to transform: nM.

Considering `c1cncc(-c2cc3c(-c4cc5c(-c6cccnc6)cncc5[nH]4)n[nH]c3cn2)c1` , its log10 of EC50 with primary human mesenchymal stem cells (hMSCs) was recorded as 2.00

Considering `Nc1cncc(-c2cc3c(-c4cc5c(-c6ccncc6)cncc5[nH]4)n[nH]c3cn2)c1` , its log10 of EC50 with primary human mesenchymal stem cells (hMSCs) was recorded as 1.00

Considering `Nc1cncc(-c2cc3c(-c4cc5c(N6CCCCC6)cncc5[nH]4)n[nH]c3cn2)c1` , its log10 of EC50 with primary human mesenchymal stem cells (hMSCs) was recorded as 1.48

Considering `Fc1ccc(-c2cncc3[nH]c(-c4n[nH]c5cnc(-c6cncc(CN7CCC(F)(F)C7)c6)cc45)cc23)cc1` , its log10 of EC50 with primary human mesenchymal stem cells (hMSCs) was recorded as 2.00

Considering `Fc1ccc(-c2cncc3[nH]c(-c4n[nH]c5cnc(-c6cncnc6)cc45)cc23)cc1` , its log10 of EC50 with primary human mesenchymal stem cells (hMSCs) was recorded as 2.95

Considering `CN(C)Cc1cncc(-c2cc3c(-c4cc5c(-c6ccccc6F)cncc5[nH]4)n[nH]c3cn2)c1` , its log10 of EC50 with primary human mesenchymal stem cells (hMSCs) was recorded as 3.43

Considering `Fc1cccc(-c2cncc3[nH]c(-c4n[nH]c5cnc(-c6cccnc6)cc45)cc23)c1` , its log10 of EC50 with primary human mesenchymal stem cells (hMSCs) was recorded as 3.43

Considering `Fc1cccc(-c2cncc3[nH]c(-c4n[nH]c5cnc(-c6cncc(CN7CCCC7)c6)cc45)cc23)c1` , its log10 of EC50 with primary human mesenchymal stem cells (hMSCs) was recorded as 2.00

Considering `Fc1cccc(-c2cncc3[nH]c(-c4n[nH]c5cnc(-c6cncnc6)cc45)cc23)c1` , its log10 of EC50 with primary human mesenchymal stem cells (hMSCs) was recorded as 1.00

Considering `CN(C)Cc1cncc(-c2cc3c(-c4cc5c(-c6ccncc6)cncc5[nH]4)n[nH]c3cn2)c1` , its log10 of EC50 with primary human mesenchymal stem cells (hMSCs) was recorded as 1.48

Considering `FC1(F)CCN(Cc2cncc(-c3cc4c(-c5cc6c(-c7cccnc7)cncc6[nH]5)n[nH]c4cn3)c2)C1` , its log10 of EC50 with primary human mesenchymal stem cells (hMSCs) was recorded as 3.43

Considering `CCNCc1cncc(-c2cc3c(-c4cc5c(-c6cccnc6)cncc5[nH]4)n[nH]c3cn2)c1` , its log10 of EC50 with primary human mesenchymal stem cells (hMSCs) was recorded as 1.00
